target or system: GST-Aq-NF-kB (Amphimedon queenslandica, UniProt A9Y5G7 2-389)
Sequence: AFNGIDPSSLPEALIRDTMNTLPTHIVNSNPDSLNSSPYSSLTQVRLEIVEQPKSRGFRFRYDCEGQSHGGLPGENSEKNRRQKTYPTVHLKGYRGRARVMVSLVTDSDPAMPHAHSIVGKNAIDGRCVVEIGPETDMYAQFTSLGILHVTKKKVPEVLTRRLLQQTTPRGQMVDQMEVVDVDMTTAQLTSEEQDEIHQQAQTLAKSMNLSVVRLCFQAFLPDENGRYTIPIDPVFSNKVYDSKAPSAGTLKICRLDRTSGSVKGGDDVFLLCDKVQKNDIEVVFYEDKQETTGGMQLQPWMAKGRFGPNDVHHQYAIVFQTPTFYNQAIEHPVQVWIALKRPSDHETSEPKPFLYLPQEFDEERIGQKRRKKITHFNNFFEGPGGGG
method: protein-binding microarray (PBM); PBM: ~300 nM protein, 6 mM HEPES pH 7.8, 80 mM KCl, 0.5 mM EDTA, 0.5 mM EGTA, 6% glycerol, 35 ng/ul poly-dIdC, 1% milk, 1 h, room temperature; high values mean tight binding
protocol conditions: dsDNA, one strand shown
We label by threshold. Values of binding signal strictly beneath 5 z-score are 1.0. Values of 5 z-score and up are 0.0.

Prompt: I'd appreciate it if you could check whether CCGATTAACATCAGGGCATGCCCTGATGTTAATCGGGTCTTGATTCGCTTGACGCTGCTG has binding signal smaller than 5 z-score.
Completion: 1.0

Prompt: I'd appreciate it if you could check whether CCGATTAACATCAAAATCTCCCCTGATGTTAATCGGGTCTTGATTCGCTTGACGCTGCTG has binding signal smaller than 5 z-score.
Completion: 0.0

Prompt: I'd appreciate it if you could check whether CCGATTAACATCAAGCGTTCCCCTGATGTTAATCGGGTCTTGATTCGCTTGACGCTGCTG has binding signal smaller than 5 z-score.
Completion: 1.0

Prompt: I'd appreciate it if you could check whether CCGATTAACATCAGGGGCGGGAATGATGTTAATCGGGTCTTGATTCGCTTGACGCTGCTG has binding signal smaller than 5 z-score.
Completion: 1.0

Prompt: I'd appreciate it if you could check whether CCGATTAACATCAAAAGCCCCCTTGATGTTAATCGGGTCTTGATTCGCTTGACGCTGCTG has binding signal smaller than 5 z-score.
Completion: 0.0

Prompt: I'd appreciate it if you could check whether CCGATTAACATCAGGATTTTTCATGATGTTAATCGGGTCTTGATTCGCTTGACGCTGCTG has binding signal smaller than 5 z-score.
Completion: 1.0

Prompt: I'd appreciate it if you could check whether CCGATTAACATCAAAAAAACCCCTGATGTTAATCGGGTCTTGATTCGCTTGACGCTGCTG has binding signal smaller than 5 z-score.
Completion: 0.0

Prompt: I'd appreciate it if you could check whether CCGATTAACATCACGTAAATCCCTGATGTTAATCGGGTCTTGATTCGCTTGACGCTGCTG has binding signal smaller than 5 z-score.
Completion: 1.0

Prompt: I'd appreciate it if you could check whether CCGATTAACATCACAAACTTCCCTGATGTTAATCGGGTCTTGATTCGCTTGACGCTGCTG has binding signal smaller than 5 z-score.
Completion: 1.0

Prompt: I'd appreciate it if you could check whether CCGATTAACATCAATCTCCCCCCTGATGTTAATCGGGTCTTGATTCGCTTGACGCTGCTG has binding signal smaller than 5 z-score.
Completion: 0.0

Prompt: I'd appreciate it if you could check whether CCGATTAACATCACAAAAACCCCTGATGTTAATCGGGTCTTGATTCGCTTGACGCTGCTG has binding signal smaller than 5 z-score.
Completion: 0.0

Prompt: I'd appreciate it if you could check whether CCGATTAACATCAAAAGCCCCCCTGATGTTAATCGGGTCTTGATTCGCTTGACGCTGCTG has binding signal smaller than 5 z-score.
Completion: 0.0

Prompt: I'd appreciate it if you could check whether CCGATTAACATCAGGGGGTGGGATGATGTTAATCGGGTCTTGATTCGCTTGACGCTGCTG has binding signal smaller than 5 z-score.
Completion: 1.0

Prompt: I'd appreciate it if you could check whether CCGATTAACATCAAGAAATTTCCTGATGTTAATCGGGTCTTGATTCGCTTGACGCTGCTG has binding signal smaller than 5 z-score.
Completion: 1.0

Prompt: I'd appreciate it if you could check whether CCGATTAACATCAGGGGGAATAATGATGTTAATCGGGTCTTGATTCGCTTGACGCTGCTG has binding signal smaller than 5 z-score.
Completion: 0.0

Prompt: I'd appreciate it if you could check whether CCGATTAACATCAAGGGAGTTCCTGATGTTAATCGGGTCTTGATTCGCTTGACGCTGCTG has binding signal smaller than 5 z-score.
Completion: 0.0

Prompt: I'd appreciate it if you could check whether CCGATTAACATCACCCACTCCCCTGATGTTAATCGGGTCTTGATTCGCTTGACGCTGCTG has binding signal smaller than 5 z-score.
Completion: 1.0

Prompt: I'd appreciate it if you could check whether CCGATTAACATCAGGGAAAACCATGATGTTAATCGGGTCTTGATTCGCTTGACGCTGCTG has binding signal smaller than 5 z-score.
Completion: 0.0

Prompt: I'd appreciate it if you could check whether CCGATTAACATCACGTCCCCCCCTGATGTTAATCGGGTCTTGATTCGCTTGACGCTGCTG has binding signal smaller than 5 z-score.
Completion: 1.0

Prompt: I'd appreciate it if you could check whether CCGATTAACATCAGGGAAAGTACTGATGTTAATCGGGTCTTGATTCGCTTGACGCTGCTG has binding signal smaller than 5 z-score.
Completion: 0.0

Prompt: I'd appreciate it if you could check whether CCGATTAACATCAGGGCATCCCCTGATGTTAATCGGGTCTTGATTCGCTTGACGCTGCTG has binding signal smaller than 5 z-score.
Completion: 0.0

Prompt: I'd appreciate it if you could check whether CCGATTAACATCAGGCTTTCCCCTGATGTTAATCGGGTCTTGATTCGCTTGACGCTGCTG has binding signal smaller than 5 z-score.
Completion: 0.0

Prompt: I'd appreciate it if you could check whether CCGATTAACATCAAAAATCACCCTGATGTTAATCGGGTCTTGATTCGCTTGACGCTGCTG has binding signal smaller than 5 z-score.
Completion: 1.0

Prompt: I'd appreciate it if you could check whether CCGATTAACATCAAGGGAAATTCTGATGTTAATCGGGTCTTGATTCGCTTGACGCTGCTG has binding signal smaller than 5 z-score.
Completion: 0.0

Prompt: I'd appreciate it if you could check whether CCGATTAACATCAAGGGGAATCCTGATGTTAATCGGGTCTTGATTCGCTTGACGCTGCTG has binding signal smaller than 5 z-score.
Completion: 0.0

Prompt: I'd appreciate it if you could check whether CCGATTAACATCAATGCCCCCCCTGATGTTAATCGGGTCTTGATTCGCTTGACGCTGCTG has binding signal smaller than 5 z-score.
Completion: 1.0

Prompt: I'd appreciate it if you could check whether CCGATTAACATCAGAGTGGGAAATGATGTTAATCGGGTCTTGATTCGCTTGACGCTGCTG has binding signal smaller than 5 z-score.
Completion: 1.0

====

target or system: GST-Aq-NF-kB (Amphimedon queenslandica, UniProt A9Y5G7 2-389)
Sequence: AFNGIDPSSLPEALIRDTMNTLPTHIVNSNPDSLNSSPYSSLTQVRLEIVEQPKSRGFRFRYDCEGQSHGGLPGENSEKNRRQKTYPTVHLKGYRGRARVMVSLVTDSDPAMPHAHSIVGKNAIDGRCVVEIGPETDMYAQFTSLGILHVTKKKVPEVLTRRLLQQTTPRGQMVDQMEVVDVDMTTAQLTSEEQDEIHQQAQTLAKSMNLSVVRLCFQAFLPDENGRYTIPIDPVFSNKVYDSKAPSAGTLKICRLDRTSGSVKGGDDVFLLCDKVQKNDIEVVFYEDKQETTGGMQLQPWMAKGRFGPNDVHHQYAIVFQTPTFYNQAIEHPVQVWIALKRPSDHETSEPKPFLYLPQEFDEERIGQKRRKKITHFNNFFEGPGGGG
method: protein-binding microarray (PBM); PBM: ~300 nM protein, 6 mM HEPES pH 7.8, 80 mM KCl, 0.5 mM EDTA, 0.5 mM EGTA, 6% glycerol, 35 ng/ul poly-dIdC, 1% milk, 1 h, room temperature; Ap Aiptasia and Nv Nematostella (sea anemones) / Co Capsaspora / Aq Amphimedon (sponge) / Dm Drosophila / Hu human; RHD is the Rel homology domain; high values mean tight binding
protocol conditions: dsDNA, one strand shown
measurement kind: binding signal (z-score)
Write down the numeric answer in z-score and omit the unit.

Prompt: Item CCGATTAACATCACGGGCACCCCTGATGTTAATCGGGTCTTGATTCGCTTGACGCTGCTG has what recorded binding signal?
Completion: 2.04

Prompt: Item CCGATTAACATCAAGAAAATTCCTGATGTTAATCGGGTCTTGATTCGCTTGACGCTGCTG has what recorded binding signal?
Completion: 1.97

Prompt: Item CCGATTAACATCAACTACCCCCCTGATGTTAATCGGGTCTTGATTCGCTTGACGCTGCTG has what recorded binding signal?
Completion: 3.98

Prompt: Item CCGATTAACATCAAAGTCTCCCCTGATGTTAATCGGGTCTTGATTCGCTTGACGCTGCTG has what recorded binding signal?
Completion: 3.98

Prompt: Item CCGATTAACATCAACCATGGGAATGATGTTAATCGGGTCTTGATTCGCTTGACGCTGCTG has what recorded binding signal?
Completion: 1.99

Prompt: Item CCGATTAACATCAATATACCCCCTGATGTTAATCGGGTCTTGATTCGCTTGACGCTGCTG has what recorded binding signal?
Completion: 4.03
